Would you kindly list IC50 for each of these compounds?
- SYSTEM: human PD-1 / PD-L1-Ig binding on Jurkat cell line over-expressing human PD-1 (Jurkat-PD-1) (Homo sapiens, UniProt Q15116)
- Construct: expressed in transfected cells; host or cells: Jurkat
- Sequence (Q15116 25-288): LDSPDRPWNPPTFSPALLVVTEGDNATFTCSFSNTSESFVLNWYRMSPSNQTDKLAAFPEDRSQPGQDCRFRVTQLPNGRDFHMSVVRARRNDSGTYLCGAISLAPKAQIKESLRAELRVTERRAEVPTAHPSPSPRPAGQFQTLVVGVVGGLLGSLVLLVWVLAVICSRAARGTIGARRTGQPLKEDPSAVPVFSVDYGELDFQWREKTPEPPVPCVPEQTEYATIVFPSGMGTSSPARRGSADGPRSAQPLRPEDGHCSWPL
- RUN_DESCRIPTION: Jurkat-PD-1 Cell Binding High-Content Screening Assay (CBA)
- Type: cell-based
- APPLIED_CONDITIONS: Jurkat-PD-1 cells, PE-labeled PD-L1-Ig 20 nM final; read-out: Jurkat HPD1_PDL1 IC50
Enter your answer as a number in µM; do not include the unit.

What value of IC50 has been recorded for this entry: COc1ccc(C[C@@H]2NC(=O)[C@H](CN)NC(=O)CSC[C@@H](C(=O)N[C@@H](C)C(N)=O)NC(=O)[C@H]([C@@H](C)O)NC(=O)[C@H](C(C)C)NC(=O)[C@H](CC3CCCCC3)NC(=O)[C@H](CCN)NC(=O)[C@@H](CC(C)C)NC(=O)[C@H](CCCN)NC(=O)[C@H](CCCNC(N)=O)NC(=O)[C@H](Cc3ccc(-c4ccccc4)cc3)NC(=O)[C@H](C(C)C)NC(=O)[C@H](Cc3c[nH]c4ccccc34)NC(=O)[C@H](CC(=O)O)NC2=O)cc1
0.018

Likewise for CC(C)C[C@H]1NC(=O)[C@H](CCCN)NC(=O)[C@H](C(C)C)NC(=O)[C@H](Cc2ccc(-c3ccccc3)cc2)NC(=O)[C@H](C(C)C)NC(=O)[C@H](Cc2cccc(C(F)(F)F)c2)NC(=O)[C@H](CC(=O)O)NC(=O)[C@H](Cc2ccc(OCC(=O)O)cc2)NC(=O)[C@H](CN)NC(=O)CSC[C@@H](C(=O)N[C@@H](C)C(N)=O)NC(=O)[C@H]([C@@H](C)O)NC(=O)[C@H](C(C)C)NC(=O)[C@H](CC2CCCCC2)NC(=O)[C@H](CCN)NC1=O ?
0.0303

---

- SYSTEM: human PD-1 / PD-L1-Ig binding on Jurkat cell line over-expressing human PD-1 (Jurkat-PD-1) (Homo sapiens, UniProt Q15116)
- Construct: expressed in transfected cells; host or cells: Jurkat
- RUN_DESCRIPTION: Jurkat-PD-1 Cell Binding High-Content Screening Assay (CBA)
- Format: cell-based
- APPLIED_CONDITIONS: Jurkat-PD-1 cells, PE-labeled PD-L1-Ig 20 nM final; read-out: Jurkat HPD1_PDL1 IC50
Where a SMILES comes first, the peptide text is derived from it. Bridges are numbered along the chain shown (N, C = ends). [ ]: non-standard residue; d: D form. Bip = N[C@@H](Cc1ccc(-c2ccccc2)cc1)C(=O)O; Cha = N[C@@H](CC1CCCCC1)C(=O)O; Cit = NC(=O)NCCC[C@H](N)C(=O)O; dNle = CCCC[C@@H](N)C(=O)O; Orn = NCCC[C@H](N)C(=O)O; Dab = NCC[C@H](N)C(=O)O
Would you kindly list pIC50 for each of these compounds?
A value of pIC50 is the negative decimal logarithm of a concentration given in moles per litre.

What value of pIC50 has been recorded for this entry: CC[C@H](C)[C@@H]1NC(=O)[C@H](Cc2ccc(-c3ccccc3)cc2)NC(=O)[C@H](C(C)C)NC(=O)[C@H](Cc2cccc(C)c2)NC(=O)[C@H](CC(=O)O)NC(=O)[C@H](Cc2ccc(N=[N+]=[N-])cc2)NC(=O)[C@H](Cc2ccncc2)NC(=O)CSC[C@@H](C(=O)N[C@@H](C)C(N)=O)NC(=O)[C@H]([C@@H](C)O)NC(=O)[C@H](C(C)C)NC(=O)[C@H](CC2CCCCC2)NC(=O)[C@H](CCN)NC(=O)[C@@H](CC(C)C)NC(=O)[C@H](CCCN)NC1=O
6.59

Likewise for CC[C@@H]1NC(=O)[C@H](Cc2ccc(-c3ccccc3)cc2)NC(=O)[C@H](C(C)C)NC(=O)[C@H](Cc2cccc(C)c2)NC(=O)[C@H](CC(=O)O)NC(=O)[C@H](Cc2ccc(C(=O)O)cc2)NC(=O)[C@H](Cc2ccncc2)NC(=O)CSC[C@@H](C(=O)N[C@@H](C)C(N)=O)NC(=O)[C@H]([C@@H](C)O)NC(=O)[C@H](C(C)C)NC(=O)[C@H](CC2CCCCC2)NC(=O)[C@H](CCN)NC(=O)[C@@H](CC(C)C)NC(=O)[C@H](CCCN)NC1=O ?
7.84

Likewise for CCCC[C@H]1NC(=O)[C@H](CCCN)NC(=O)[C@H](C(C)C)NC(=O)[C@H](Cc2ccc(-c3ccccc3)cc2)NC(=O)[C@H](C(C)C)NC(=O)[C@H](Cc2c[nH]c3ccccc23)NC(=O)[C@H](CC(=O)O)NC(=O)[C@H](Cc2ccc(O)cc2)NC(=O)[C@H](CC(N)=O)NC(=O)CSC[C@@H](C(=O)N[C@@H](C)C(N)=O)NC(=O)[C@H]([C@@H](C)O)NC(=O)[C@H](C(C)C)NC(=O)[C@H](CC2CCCCC2)NC(=O)[C@H](CCN)NC1=O [Compound 1696] ({CH2CO}-NYDWV[Bip]V[Orn][dNle][Dab][Cha]VTCA-NH2; thioether N-14) ?
7.73

Likewise for CC(C)C[C@@H]1NC(=O)[C@H](CCN)NC(=O)[C@@H](CC(C)C)NC(=O)[C@H](CCN)NC(=O)[C@H](CCCNC(N)=O)NC(=O)[C@H](Cc2ccc(-c3ccccc3)cc2)NC(=O)[C@H](C(C)C)NC(=O)[C@H](Cc2c[nH]c3ccccc23)NC(=O)[C@H](CC(=O)O)NC(=O)[C@H](Cc2ccc(O)cc2)NC(=O)[C@H](CC(N)=O)NC(=O)CSC[C@@H](C(=O)N[C@@H](C)C(N)=O)NC(=O)[C@H]([C@@H](C)O)NC(=O)[C@H](C(C)C)NC1=O [Compound 1018] ({CH2CO}-NYDWV[Bip][Cit][Dab][dL][Dab]LVTCA-NH2; thioether N-14) ?
7.68
